Listed here: items and their measured Maximum Non-Hemolytic Concentration.
tested on: blood
Give the quantity in %, number only.

Example entries begin here.
{"Compound": "O=C(O)CCCCCSCCC(F)(F)C(F)(F)C(F)(F)C(F)(F)C(F)(F)C(F)(F)C(F)(F)C(F)(F)F [2c3c]", "Unit": "%", "Maximum Non-Hemolytic Concentration": 0.25}
{"Compound": "O=C(O)CSCCC(F)(F)C(F)(F)C(F)(F)C(F)(F)C(F)(F)C(F)(F)C(F)(F)C(F)(F)F [2a3d]", "Unit": "%", "Maximum Non-Hemolytic Concentration": 0.02}
{"Compound": "O=C([O-])CSCCC(F)(F)C(F)(F)C(F)(F)C(F)(F)C(F)(F)C(F)(F)C(F)(F)C(F)(F)F.[Na+]", "Unit": "%", "Maximum Non-Hemolytic Concentration": 0.5}

Let's switch to this compound now.
Report the value of Maximum Non-Hemolytic Concentration obtained on blood for O=C(O)CCC(=O)OCCC(F)(F)C(F)(F)C(F)(F)C(F)(F)C(F)(F)C(F)(F)F [2i3k] . 0.1

====

system: HMEC-1 human vascular endothelial cells
Experimental endpoint: Maximum Non-Cytotoxic Concentration HMEC-1 (%)
Give the quantity in %, number only.

{"Molecule": "O=C(O)CCCCCSCCC(F)(F)C(F)(F)C(F)(F)C(F)(F)C(F)(F)C(F)(F)C(F)(F)C(F)(F)F [2c3a]", "Unit": "%", "Test result": 0.5}
{"Molecule": "O=C(O)CCCCCSCCC(F)(F)C(F)(F)C(F)(F)C(F)(F)C(F)(F)C(F)(F)C(F)(F)C(F)(F)F [2c3l]", "Unit": "%", "Test result": 0.5}
{"Molecule": "O=C(O)CCCCCSCCC(F)(F)C(F)(F)C(F)(F)C(F)(F)C(F)(F)C(F)(F)C(F)(F)C(F)(F)F [2c3e]", "Unit": "%", "Test result": 1}

Find the measured Maximum Non-Cytotoxic Concentration HMEC-1 of O=C(O)CSCCC(F)(F)C(F)(F)C(F)(F)C(F)(F)C(F)(F)C(F)(F)C(F)(F)C(F)(F)F [2a3d] and report it. 0.1

Find the measured Maximum Non-Cytotoxic Concentration HMEC-1 of O=C(O)CCCC(=O)OCCC(F)(F)C(F)(F)C(F)(F)C(F)(F)C(F)(F)C(F)(F)C(F)(F)C(F)(F)F [2l3c] and report it. 0.5

Find the measured Maximum Non-Cytotoxic Concentration HMEC-1 of O=C(O)CC(F)(F)C(F)(F)C(F)(F)C(F)(F)C(F)(F)C(F)(F)F [2p3e] and report it. 0.25

Find the measured Maximum Non-Cytotoxic Concentration HMEC-1 of O=C(O)CCCCCSCCC(F)(F)C(F)(F)C(F)(F)C(F)(F)C(F)(F)C(F)(F)C(F)(F)C(F)(F)F [2c3k] and report it. 1

Find the measured Maximum Non-Cytotoxic Concentration HMEC-1 of O=C(O)CCC(=O)OCCC(F)(F)C(F)(F)C(F)(F)C(F)(F)C(F)(F)C(F)(F)C(F)(F)C(F)(F)F [2j3e] and report it. 0.5

Find the measured Maximum Non-Cytotoxic Concentration HMEC-1 of O=C(O)CCCCCSCCC(F)(F)C(F)(F)C(F)(F)C(F)(F)C(F)(F)C(F)(F)C(F)(F)C(F)(F)F [2c3f] and report it. 1

Find the measured Maximum Non-Cytotoxic Concentration HMEC-1 of O=C(O)CCC(=O)OCCC(F)(F)C(F)(F)C(F)(F)C(F)(F)C(F)(F)C(F)(F)F [2i3k] and report it. 0.1

Find the measured Maximum Non-Cytotoxic Concentration HMEC-1 of O=C(O)CSCCC(F)(F)C(F)(F)C(F)(F)C(F)(F)C(F)(F)C(F)(F)C(F)(F)C(F)(F)F [2a3c] and report it. 0.2
